- Tested on: OVCAR-5 ovarian
- Measurement description: NCI tumour cell line growth inhibition, 48 h
Attribute: TGI
Attribute measured: TGI

>>> experimental_value("Oc1ccc2ccccc2c1N=Nc1ccc(Cl)cc1")
"> 100 µM"
>>> experimental_value("CN(C)CC1CCCCCC(Br)C1=O (stereo not given)")
"> 52.2 µM"
>>> experimental_value("CC1=NN(C(=O)Cc2ccccc2)C(=O)/C1=C\\c1ccccc1O")
"> 100 µM"
>>> experimental_value("O=C(O)c1cn(C2CC2)c2cc(N3CCNCC3)c(F)cc2c1=O")
"> 100 µM"
>>> experimental_value("NCCS(=O)(=O)O")
"> 100 µM"
